Sourced from ChEMBL document CHEMBL1133941

- STUDY_SYSTEM: P-selectin (Homo sapiens)
- Sequence (whole entry): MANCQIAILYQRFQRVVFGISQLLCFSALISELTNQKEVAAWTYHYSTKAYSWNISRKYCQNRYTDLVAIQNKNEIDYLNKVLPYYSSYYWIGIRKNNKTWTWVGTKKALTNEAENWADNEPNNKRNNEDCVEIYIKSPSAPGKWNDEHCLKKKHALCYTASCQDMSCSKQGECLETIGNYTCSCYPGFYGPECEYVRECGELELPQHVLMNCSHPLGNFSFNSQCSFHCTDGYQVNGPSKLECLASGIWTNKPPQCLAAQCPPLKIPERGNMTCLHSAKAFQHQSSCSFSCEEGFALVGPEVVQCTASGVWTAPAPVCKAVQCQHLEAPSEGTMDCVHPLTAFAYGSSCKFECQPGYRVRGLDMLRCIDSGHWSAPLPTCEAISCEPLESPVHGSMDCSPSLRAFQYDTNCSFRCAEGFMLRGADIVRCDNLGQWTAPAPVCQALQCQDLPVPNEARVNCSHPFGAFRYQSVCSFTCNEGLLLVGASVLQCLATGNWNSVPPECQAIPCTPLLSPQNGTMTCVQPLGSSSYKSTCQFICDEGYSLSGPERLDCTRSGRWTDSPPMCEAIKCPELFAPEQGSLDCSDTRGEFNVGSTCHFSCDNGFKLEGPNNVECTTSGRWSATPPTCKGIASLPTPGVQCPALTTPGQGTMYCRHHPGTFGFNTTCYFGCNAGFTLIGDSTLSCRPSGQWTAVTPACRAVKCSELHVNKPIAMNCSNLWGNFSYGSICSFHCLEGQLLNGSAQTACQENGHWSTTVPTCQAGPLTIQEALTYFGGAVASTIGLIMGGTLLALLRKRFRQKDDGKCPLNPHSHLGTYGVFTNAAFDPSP
- EXPERIMENTAL_DETAILS: Inhibitory activity was evaluated In vitro in Selectin P mediated cell adhesion assay at a concentration of 30uM
Parameter inhibition: see the listing below.
Respond numerically; units are % and should not be typed.

// solved cases for inhibition follow
{"columns": ["COMPOUND", "UNITS", "inhibition"],
 "data": [
  ["CCCCCCCCCCCCCCC(CCCCCCCCCCCCCC)C(=O)N[C@@H](CO[C@@H]1O[C@@H](C)[C@@H](O)[C@H](O)[C@@H]1O)C(=O)N[C@@H](CCC(=O)O)C(=O)NC", "%", 42.8],
  ["CCCCCCCCCCCCCCC(CCCCCCCCCCCCCC)CNC(=O)c1cc(CSC2OC(C)C(O)C(O)C2O)cc(C(=O)O)c1 (centres undefined)", "%", 75.7],
  ["CCCCCCCCCCCCCCC(CCCCCCCCCCCCCC)CNC(=O)c1cc(CSC2OC(C)C(O)C(O)C2O)cc(C(=O)NC(CCC(=O)O)C(=O)NC)c1 (centres undefined)", "%", -0.9]
]}

Now turn to the next compound.
Answer with the recorded inhibition of CCCCCCCCCCCCCCC(CCCCCCCCCCCCCC)CNC(=O)c1cc(CSC2OC(C)C(O)C(O)C2O)cc(C(=O)NCCC(=O)O)c1 (centres undefined) only.
31.3
